Target Under Test: Kappa-type opioid receptor (Homo sapiens)
Sequence (P41145 whole entry): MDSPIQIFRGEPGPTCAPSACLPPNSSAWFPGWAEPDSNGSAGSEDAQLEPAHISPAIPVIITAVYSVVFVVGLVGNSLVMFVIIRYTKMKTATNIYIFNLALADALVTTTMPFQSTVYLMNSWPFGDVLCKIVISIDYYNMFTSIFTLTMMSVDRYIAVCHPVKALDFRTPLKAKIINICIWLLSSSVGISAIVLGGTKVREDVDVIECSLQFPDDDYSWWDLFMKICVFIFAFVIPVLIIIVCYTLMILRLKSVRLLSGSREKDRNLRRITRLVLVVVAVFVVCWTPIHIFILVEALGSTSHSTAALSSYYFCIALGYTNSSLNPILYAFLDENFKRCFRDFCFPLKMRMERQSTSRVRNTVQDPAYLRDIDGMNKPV
Test Readout: pKi
pKi field: float, defined as -log10 of concentration (mol/L).

Prompt line: Report pKi for Cc1cc(O)cc(C)c1C[C@@H](C(=O)N1Cc2ccccc2C[C@H]1C(=O)OC1=C2O[C@H]3[C@@H](O)C=C[C@H]4[C@H]5CC(C=C1)C2[C@]43CCN5C)N(C)C (stereo partly specified) tested on Kappa-type opioid receptor (Homo sapiens).
Response line: 7.92

Value source: ChEMBL document CHEMBL1667791
